Exercise: state measured IC50 for each of the compounds provided.
# TARGET SYSTEM: VLA-4-IgG chimeric protein (Homo sapiens, UniProt P05556+P13612)
# Sequence (P13612 34-1032, change not shown): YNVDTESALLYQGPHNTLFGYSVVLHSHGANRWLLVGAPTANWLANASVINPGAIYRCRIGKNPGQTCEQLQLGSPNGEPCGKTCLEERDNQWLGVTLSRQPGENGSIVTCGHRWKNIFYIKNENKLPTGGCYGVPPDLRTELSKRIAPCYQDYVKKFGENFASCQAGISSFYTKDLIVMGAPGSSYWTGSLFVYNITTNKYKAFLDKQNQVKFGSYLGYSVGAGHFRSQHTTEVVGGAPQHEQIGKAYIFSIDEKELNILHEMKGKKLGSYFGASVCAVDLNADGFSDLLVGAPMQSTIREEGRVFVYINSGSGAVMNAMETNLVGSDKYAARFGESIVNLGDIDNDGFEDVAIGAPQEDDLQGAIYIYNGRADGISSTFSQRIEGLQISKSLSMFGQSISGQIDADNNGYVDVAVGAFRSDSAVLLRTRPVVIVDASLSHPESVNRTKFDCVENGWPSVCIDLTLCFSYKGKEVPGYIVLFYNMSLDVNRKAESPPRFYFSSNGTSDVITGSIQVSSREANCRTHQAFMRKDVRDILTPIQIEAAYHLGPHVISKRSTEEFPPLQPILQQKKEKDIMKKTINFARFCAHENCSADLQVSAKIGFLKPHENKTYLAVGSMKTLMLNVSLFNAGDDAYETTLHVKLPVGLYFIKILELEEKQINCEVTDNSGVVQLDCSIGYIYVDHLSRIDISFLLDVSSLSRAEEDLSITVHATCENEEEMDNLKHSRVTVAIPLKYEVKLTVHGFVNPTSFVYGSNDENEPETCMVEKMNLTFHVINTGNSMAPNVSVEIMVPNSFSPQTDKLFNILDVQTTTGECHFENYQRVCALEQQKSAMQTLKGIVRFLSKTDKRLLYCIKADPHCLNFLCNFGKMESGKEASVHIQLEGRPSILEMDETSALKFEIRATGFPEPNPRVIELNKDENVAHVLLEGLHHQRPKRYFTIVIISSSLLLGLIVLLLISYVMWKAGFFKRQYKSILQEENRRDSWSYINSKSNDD
# Sequence (P05556 21-798, change not shown): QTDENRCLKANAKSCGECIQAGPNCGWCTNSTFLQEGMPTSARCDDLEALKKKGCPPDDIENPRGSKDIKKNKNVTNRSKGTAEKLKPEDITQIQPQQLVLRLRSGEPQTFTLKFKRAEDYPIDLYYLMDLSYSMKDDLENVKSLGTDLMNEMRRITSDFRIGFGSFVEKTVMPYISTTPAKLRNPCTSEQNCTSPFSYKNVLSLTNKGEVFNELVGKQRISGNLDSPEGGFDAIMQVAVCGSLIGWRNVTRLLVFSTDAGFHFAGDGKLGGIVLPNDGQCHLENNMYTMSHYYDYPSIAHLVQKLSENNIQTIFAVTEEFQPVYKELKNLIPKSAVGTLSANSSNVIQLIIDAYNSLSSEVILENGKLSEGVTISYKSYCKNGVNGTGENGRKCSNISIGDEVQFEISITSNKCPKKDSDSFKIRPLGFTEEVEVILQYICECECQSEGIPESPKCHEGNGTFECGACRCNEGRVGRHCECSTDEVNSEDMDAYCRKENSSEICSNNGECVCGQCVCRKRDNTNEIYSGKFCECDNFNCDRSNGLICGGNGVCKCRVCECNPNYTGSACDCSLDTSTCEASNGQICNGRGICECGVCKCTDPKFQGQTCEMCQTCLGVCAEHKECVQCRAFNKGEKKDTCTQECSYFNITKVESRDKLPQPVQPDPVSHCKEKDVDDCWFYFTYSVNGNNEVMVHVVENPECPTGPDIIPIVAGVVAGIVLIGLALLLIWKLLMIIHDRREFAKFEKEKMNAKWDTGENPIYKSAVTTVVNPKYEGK
# ASSAY EXPLANATION: Inhibition of binding of CS-1 peptide and VLA-4-IgG chimeric protein
# CONDITION LABEL: binding of immobilized CS-1 peptide and VLA-4-IgG chimeric protein, absorbance at 490 nm
Bridge positions count the residues as written; N and C are the ends. Square brackets hold non-standard residues; d marks the D form. Peptide text beside a SMILES is read from it. Met(O2) = CS(=O)(=O)CC[C@H](N)C(=O)O
Answers are plain numbers, in nM.

COMPOUND: CC[C@H](C)[C@@H]1NC(=O)[C@@H](N)CSSC[C@@H](C(=O)O)NC(=O)[C@H](CC(C)C)NC(=O)[C@H](Cc2c[nH]c3ccccc23)NC(=O)[C@H](CC(=O)O)NC1=O [compound 31] (H-CIDWLC-OH; disulfide 1-6)
IC50 / nM: 450

Q: Query: IC50; subject: CC[C@H](C)[C@@H]1NC(=O)[C@@H](N)CSSC[C@@H](C(=O)O)NC(=O)[C@H](CC(C)C)NC(=O)[C@H](Cc2c[nH]cn2)NC(=O)[C@H](CCS(C)(=O)=O)NC1=O [compound 17] (H-CI[Met(O2)]HLC-OH; disulfide 1-6)
A: 800
